experimentalSystem: GPNMB-V5His (recombinant human GPNMB extracellular domain with C-terminal V5-His tag) (human) (UniProt Q14956)
assayDetails: ELISA, coated GPNMB, Ab 111 ng/mL
We begin with a simple list: items and their reported Avg OD.
Just the number in OD, nothing appended.

Take a look at these entries with their results.
{"binder": "Mab1.2.2 (antibody, human IgG2, V domains shown) VH: ITLKESGPTLVKPTQTLTLTCTFSGFSLSAGGVGVGWIRQPPGKALEWLALIYWNDDKRYSPSLRSRLTITKDTSKNQVVLTITNMDPVDTATYYCAHSHYDYDWGSYFDYWGQGTLVTVSS VL: DIVMTQTPLSLPVTPGEPASISCRSSQSLLDSDDGNTYLDWYLQKPGQSPQLLIYTLSYRASGVPDRFSGSGSGTDFTLNISRVEAEDVGVYYCMQRIEFPITFGQGTRLEIKR", "measuredResult": 0.199}
{"binder": "2-7 (hybridoma of Table 6) (antibody, V domains shown) VH: QVQLEQSGGGVVQPGRSLRLSCAASGFTFNNYGMHWVRQAPGKGLEWVAVIWYDGSNKYYADSVKGRFTISRDNSKNTLYLQMNSLRAEDTAVYYCAKDEEYYYVSGLDYWGQGTLVTVSS VL: LTQSPSSLSASVRDRVTITCRASQDISNYLAWYQQKPGKVPNLLIYAASTLQSGVPSRFSGSGSGTDFTLTISSLQPEDVATYYCQKYNSAPLTFGGGTKVEIKR", "measuredResult": 0.494}
{"binder": "1.7.3 (antibody, V domains shown) VH: QVQLQESGPGLVKPSQTLSLTCTVSGGSISSANYYWTWIRQHPGKGLEWIGYIYYSGSTYCNPSLKSRVIISVDTSKNQFSLKLSSVTAADTAVYYCARGYNWNYFDYWGQGTLVTVSS VL: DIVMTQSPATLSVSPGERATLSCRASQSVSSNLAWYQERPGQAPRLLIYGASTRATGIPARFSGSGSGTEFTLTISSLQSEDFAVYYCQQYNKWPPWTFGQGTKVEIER", "measuredResult": 0.451}

The record that follows has no Avg OD shown yet.
Data request: Answer with reported Avg OD of 2-17 (hybridoma of Table 6) (antibody, V domains shown) VH: QLVQSGAEVKKPGASVKVSCKASGYTFTGFYMHWVRQTPGQGLEWMGWINPNSGGTYYVQKFQGRVTMTRDTSISTVYMELSRLRSDDTAVYYCARDGYSSGEDWFDPWGQGTLVTVSS VL: DIVMTQTPLSLSVTPGQPASISCKSSQSLLHSGGKTYLYWYLQRPGQPPQLLIYEVSNRFSGVPDRFSGSGSGTDFTLKISRVEAEDVGVYYCMQSIHLPLTFGGGTKVEIKR
Data returned: 0.009

Entry source: patent US20160311919A1
